- experimental.system: Left-right determination factor 2 (Homo sapiens)
- protocol.description: LEFTY2 binders on small-molecule microarrays, primary screen, biochemical, small-molecule microarray, 635 nm fluorescence scan (AID 1110)
- experimental.context: LEFTY2 binding, higher = more signal
observation.type: composite z-score

CC(C)C[C@@H]1NC(=O)[C@H]2C[C@@H](C(=O)NCCCCCCN(C)C)[C@@H](c3ccc(O)cc3)N2C1=O    1.06
O=C1OCCC/C=C\[C@H]2OC34C=CCN(CCN5CCOCC5)C(=O)[C@H]3N(CCCO)C(=O)[C@@H]4C12 (some centres undefined)    -0.27
Cc1ccc(S[C@]2(C(=O)NCC(F)(F)F)CC(=O)N(C(C)C)[C@@H]2c2ccc(CO)cc2I)cc1    -0.754
CCOC(=O)C[C@H]1[C@H](OC(=O)c2cc3ccccc3oc2=O)[C@@H](NC(=O)Cc2ccc(OC)cc2)c2cc(OCCCO)ccc2N1C(=O)c1ccccc1    0.427

* * *

- protocol.description: small-molecule binders of probe aNOTCH3, primary screen, biochemical, small-molecule microarray, 635/667 nm fluorescence (AID 1120);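 further: probe is a biotin-tagged antibody raised against NOTCH3 rather than NOTCH3 protein; score merges spot fluorescence near 667 nm with spot signal to noise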
- experimental.context: higher = more signal
observation.type: composite z-score

C=CC[C@@]1(C(=O)NCc2ccccc2)N=C(c2ccc(OCCCO)cc2)O[C@@H]1c1ccccc1N=[N+]=[N-]    0.355
CN(C)CCCC[C@@H]1NC(=O)[C@H]2C[C@@H](C(=O)NCCCCCNC(=O)CS)[C@@H](c3cccc(OCCO)c3)N2C1=O    -0.239
CCCCc1cn(C[C@H](Cc2ccccc2)NC(=O)N[C@H](CO)CCc2oc(C(C)=O)c(C(=O)OC)c2C(=O)OC)nn1    0.328
COCCOC(=O)N1C(=O)[C@@]2(c3cc(C#Cc4ccc(OC)cc4)ccc31)[C@H](C(N)=O)[C@H]1C(=O)O[C@H](c3ccccc3)[C@H](c3ccccc3)N1[C@@H]2c1ccccc1OCCO    0.293
COc1cc2c(cc1OC)CN(C(=O)[C@H]1[C@@H]3C(=O)O[C@@H](c4ccccc4)[C@@H](c4ccccc4)N3[C@@H](c3ccc(O)cc3)[C@]13C(=O)Nc1ccc(C#CC4=CCCCC4)cc13)CC2    0.533
COC(=O)[C@@]1(Cc2ccccc2)[C@H]2c3cc(C(=O)N4CCCC4)n(CC4CC4)c3C[C@H]2CN1C(=O)c1ccccc1    1.13

* * *

- protocol.description: PSAC antagonists in infected red cells, primary screen, cell-based, P. falciparum Indochina, OD700, 18 h (AID 1157)
- experimental.context: P. falciparum Indochina infected erythrocytes, osmotic lysis OD700, 18 h; higher = more signal, called active from +8 up or from −8 down
Below, each entry is listed with its recorded z-score.
observation.type: z-score

Cc1ccc(S[C@]2(C(=O)NCC(F)(F)F)CC(=O)N(C(C)C)[C@@H]2c2ccc(CO)cc2I)cc1    0.548
CN(C)C(=O)[C@]1(Cc2ccccc2CN=[N+]=[N-])N=C(c2ccc(OCCCO)cc2)O[C@@H]1c1ccccc1CN=[N+]=[N-]    -0.0196
COC(=O)[C@@]1(Cc2ccc(F)cc2)[C@H]2c3cc(C(=O)N(C)C)n(Cc4ccc(S(C)(=O)=O)cc4)c3C[C@H]2CN1C(=O)c1ccccc1    0.739
COCCOC(=O)N1C(=O)[C@@]2(c3cc(C#CCCO)ccc31)[C@H](C(=O)Nc1nc3ccccc3s1)[C@H]1C(=O)O[C@H](c3ccccc3)[C@H](c3ccccc3)N1[C@@H]2c1ccc(OCCO)cc1    1.34
COCCOC(=O)N1C(=O)[C@@]2(c3cc(C#CC4(O)CCCCCC4)ccc31)[C@H](c1ccc(O)cc1)N1[C@H](c3ccccc3)[C@H](c3ccccc3)OC(=O)[C@H]1[C@@H]2C(=O)Nc1nc2ccccc2s1    1.39
COc1cc2c(cc1OC)CN(C(=O)[C@@H]1[C@H]3C(=O)O[C@H](c4ccccc4)[C@H](c4ccccc4)N3[C@H](c3ccc(O)cc3)[C@@]13C(=O)Nc1ccc(C#CC4(O)CCCCCC4)cc13)CC2    0.442
CN(C)CCCCCCNC(=O)[C@@H]1C[C@@H]2C(=O)N[C@@H](CCCCN)C(=O)N2[C@@H]1c1cccc(OCCO)c1    -2.47
C=CCNC(=O)[C@H]1[C@@H]2C(=O)O[C@@H](c3ccccc3)[C@@H](c3ccccc3)N2[C@@H](c2ccc(OCCO)cc2)[C@]12C(=O)Nc1ccc(C#CC3=CCCCC3)cc12    1.4
COCCOC(=O)N1C(=O)[C@@]2(c3cc(C#CC4=CCCCC4)ccc31)[C@H](c1ccc(O)cc1)N1[C@H](c3ccccc3)[C@H](c3ccccc3)OC(=O)[C@H]1[C@@H]2C(N)=O    -0.104
CC(C)c1ccc(NN2C(C(O)c3cc(C(F)(F)F)cc(C(F)(F)F)c3)C=CC3C(=O)N(c4ccccc4)C(=O)C32)cc1 (stereo not drawn)    2.32
COc1cc(CO)cc(I)c1O[C@H]1C=C(C(=O)NCCO)C[C@@H](N(CCN2CCOCC2)C(=O)C2CCOC2)[C@@H]1O (stereo partly drawn)    0.427
CN1C(=O)C2C=CC(C(O)c3ccccc3)N(Nc3ccccc3)C2C1=O (stereo not drawn)    0.974
CCCCC(=C=CC[C@@H](O)c1ccccc1OCCO)CCO    0.576

* * *

- protocol.description: HepG2 liver cancer cell viability effects, profiling panel, resazurin fluorescence, 24 h, PK04 Diversity Set (AID 1172); further: test concentration not given here
- experimental.context: higher = more signal
Class (required): determined from z-score; valid ranges are lower band = under -0.3, central band = from -0.3 up to 0.5, upper band = 0.5 and over

CC1CC/C=C\[C@H]2OC34C=CCN(c5ccc(Cl)cc5)C(=O)[C@H]3N(CCO)C(=O)[C@]4(C)C2C(=O)O1 (stereo not given in full)    lower band
C[C@]1(C(=O)NC2CC2)c2ccccc2C(=O)N(Cc2cc(C(F)(F)F)cc(C(F)(F)F)c2)[C@H]1c1ccc(CO)cc1    upper band
C#CCNC(=O)[C@H](Cc1ccccc1)NC(=O)CCC(=O)O    lower band
CN(C)C(=O)[C@]1(Cc2ccccc2CN=[N+]=[N-])N=C(c2ccc(OCCCO)cc2)O[C@@H]1c1ccccc1CN=[N+]=[N-]    central band
CCc1oc(CC[C@@H](CO)NC(=O)NCCn2cc(C3(O)CCCCC3)nn2)c(C(=O)OC)c1C(=O)OC    lower band
CCCCCN1CC=CC23O[C@@H]4/C=C\CCCOC(=O)C4[C@H]2C(=O)N(CCCO)[C@@H]3C1=O (stereo not given in full)    upper band
COCCCN1C(=O)[C@@]2(c3ccc([N+](=O)[O-])cc3)CC(=O)N(C3CCCCC3)[C@@H]2c2ccc(CO)cc21    central band
COC(=O)[C@@]1(Cc2ccc(OC)cc2)[C@H]2c3cc(C(=O)N4CCCC4)n(Cc4ccc(OC)c(OC)c4)c3C[C@H]2CN1C(=O)c1ccccc1    central band
CN1C(=O)C2C=CC(C(O)c3ccccc3)N(Nc3ccccc3)C2C1=O (stereo not given)    lower band
C=CCNC(=O)[C@H]1[C@@H]2C(=O)O[C@@H](c3ccccc3)[C@@H](c3ccccc3)N2[C@@H](c2ccc(O)cc2)[C@]12C(=O)N(C(=O)OCCOC)c1ccc(C#CCNC(N)=O)cc12    central band
Cc1ccc(C(C)CC(O)C2C=CC3C(=O)N(C)C(=O)C3N2NC(=O)OC(C)(C)C)o1 (stereo not given)    lower band
O=C1c2ccccc2[C@@]2(Cc3ccccc3N(CC(F)(F)F)C2=O)[C@H](c2ccc(CO)cc2)N1Cc1ccccc1Cl    central band
COCCOC(=O)N1C(=O)[C@@]2(c3cc(C#Cc4ccc(OC)cc4)ccc31)[C@H](C(=O)N1CCCCCCC1)[C@H]1C(=O)O[C@H](c3ccccc3)[C@H](c3ccccc3)N1[C@@H]2c1ccc(OCCO)cc1    upper band

* * *

Consider the following compounds and their measured composite z-score readings.
- Test system: Fibrinogen (Alexa647-labelled)
- protocol.description: fibrinogen binders on compound microarrays, profiling panel, artefact control for SMM control-protein annotation, biochemical, small-molecule microarray, 635/667 nm fluorescence (AID 1131);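 further: z-score merges 667 nm fluorescence with per-spot signal-to-noise over triplicate slides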
- experimental.context: fibrinogen-A647 binding fluorescence, higher = more signal
observation.type: composite z-score

O=C1OCC=C[C@H]2OC34C=CCN(CCN5CCOCC5)C(=O)[C@H]3N(CCCO)C(=O)[C@@H]4[C@@H]12 (some centres not stated)    0.38
Cc1ccc(C(C)CC(O)C2C=CC3C(=O)N(C)C(=O)C3N2NC(=O)OC(C)(C)C)o1 (configuration not stated)    0.314
CCCCCCC#C[Si](O[C@H](c1ccccc1)c1cn([C@H](CO)Cc2ccccc2)nn1)(C(C)C)C(C)C    -1.29
COc1ccc(C(O)C2C=CC3C(=O)NC(=O)C3N2Nc2ccccn2)c2ccccc12 (configuration not stated)    0.0992
C=CCN1C(=O)[C@]2(O[C@H](CCO)[C@@H]([Si](C)(C)c3ccc(OC)cc3)[C@@H]2C)c2cc(N3C(=O)c4cccc5cccc3c45)ccc21    0.541
COc1ccc(C(=O)Nc2ccc(CN3C(=O)[C@@]4(O[C@@H](CC(=O)N5CCC[C@H]5CO)[C@H]([Si](C)(C)c5ccc(OC)cc5)[C@H]4C)c4ccccc43)cc2)cc1    0.655
C#CCN(CC1=CCCCC1)[C@H](c1ccccc1Br)[C@@H](O)Cc1ccccc1    -0.671
[N-]=[N+]=NCc1ccccc1C[C@@]1(C(=O)NCC(O)CO)N=C(c2ccc(OCCCO)cc2)O[C@@H]1c1ccccc1N=[N+]=[N-] (some centres not stated)    0.962
NCCCCCNC(=O)[C@@H]1C[C@@H]2C(=O)N[C@@H](Cc3ccccc3)C(=O)N2[C@@H]1c1cccc(OCCO)c1    0.968
Cc1ccc(C(C)CC(O)C2C=CC3C(=O)N(c4ccccc4)C(=O)C3N2Nc2ccc([N+](=O)[O-])cc2)o1 (configuration not stated)    0.904
COc1ccc(C(=O)Nc2cccc(CN3C(=O)[C@]4(O[C@H](CCO)[C@@H]([Si](C)(C)c5ccc(OC)cc5)[C@@H]4C)c4ccccc43)c2)cc1    0.579
C=C[C@H](COC(C)=O)N(C(=O)OC(C)(C)C)S(=O)(=O)c1ccc(Br)cc1    -0.296
CC(C)(C)OC(=O)CC[C@@]1(C(=O)NCCN2CCOCC2)N=C(c2ccc(OCCCO)cc2)O[C@@H]1c1ccccc1N=[N+]=[N-]    0.554
COc1ccc(C(O)C2C=CC3C(=O)NC(=O)C3N2Nc2ccccn2)cc1 (configuration not stated)    0.055
O=C1OCC=C[C@H]2OC34C=CCN(c5ccc6ccccc6c5)C(=O)[C@H]3N(CCCCCCO)C(=O)[C@@H]4[C@@H]12 (some centres not stated)    -0.9
C=CCOC(=O)[C@H]1[C@@H]2C(=O)O[C@@H](c3ccccc3)[C@@H](c3ccccc3)N2[C@@H](c2ccc(OCCOC(=O)[C@H]3C[C@H]4C(=O)N5CCC[C@H]5C(=O)N4[C@H]3c3ccc(O)cc3)cc2)[C@]12C(=O)Nc1ccccc12    0.598
COc1ccc(CCNC(=O)[C@@H]2c3ccccc3C(=O)N(C3Cc4ccccc4C3)[C@H]2c2ccc(CO)cc2)cc1    0.92
C=CCOC(=O)[C@@H]1[C@H]2C(=O)O[C@H](c3ccccc3)[C@H](c3ccccc3)N2[C@H](c2ccc(OCCOC(=O)[C@@H]3C[C@@H]4C(=O)N[C@@H](CCCCN(C)C)C(=O)N4[C@@H]3c3ccc(O)cc3)cc2)[C@@]12C(=O)Nc1ccc(I)cc12    0.177
COCCCNC(=O)[C@@]1(Cc2ccccc2N=[N+]=[N-])N=C(c2ccc(OCCCO)cc2)O[C@H]1c1ccccc1N=[N+]=[N-]    0.849
O=C1O[C@H](c2ccccc2)[C@H](c2ccccc2)N2[C@H]1[C@@H](C(=O)O)[C@]1(C(=O)Nc3ccc(C#CC4=CCCCC4)cc31)[C@H]2c1ccccc1OCCO    0.922
O=C(NCC(F)(F)F)[C@@H]1c2ccccc2C(=O)N(C2CCCCC2)[C@H]1c1ccc(CO)cc1    0.403
CN1C(=O)C2C=CC(C(O)c3ccccc3)N(Nc3ccccc3)C2C1=O (configuration not stated)    -0.022
CC1CC/C=C\[C@H]2OC34C=CCN(C(C)(C)C)C(=O)[C@H]3N(CCCCCCO)C(=O)[C@@H]4C2C(=O)O1 (some centres not stated)    -0.988
[N-]=[N+]=Nc1ccccc1[C@H]1OC(c2ccc(OCCCO)cc2)=N[C@@]1(Cc1ccccc1)C(=O)O    1.04
CN1C(=O)C2C=CC(C(O)c3ccc(-c4ccccc4)s3)N(N(c3ccccc3)c3ccccc3)C2C1=O (configuration not stated)    0.528
Cc1ccc(S[C@]2(C(=O)NCCN3CCOCC3)CC(=O)N(Cc3ccccc3Cl)[C@@H]2c2ccc(CO)cc2)cc1    -1.85
C=CCOC(=O)[C@@H]1[C@H]2C(=O)O[C@H](c3ccccc3)[C@H](c3ccccc3)N2[C@H](c2ccc(OCCOC(=O)[C@@H]3C[C@@H]4C(=O)N[C@@H](CCCC[N+](C)(C)C)C(=O)N4[C@@H]3c3cccc(OCCO)c3)cc2)[C@@]12C(=O)Nc1ccc(I)cc12    0.531
